- target_or_system: Cytochrome P450 1B1 (Homo sapiens)
- Sequence (Q16678 whole entry): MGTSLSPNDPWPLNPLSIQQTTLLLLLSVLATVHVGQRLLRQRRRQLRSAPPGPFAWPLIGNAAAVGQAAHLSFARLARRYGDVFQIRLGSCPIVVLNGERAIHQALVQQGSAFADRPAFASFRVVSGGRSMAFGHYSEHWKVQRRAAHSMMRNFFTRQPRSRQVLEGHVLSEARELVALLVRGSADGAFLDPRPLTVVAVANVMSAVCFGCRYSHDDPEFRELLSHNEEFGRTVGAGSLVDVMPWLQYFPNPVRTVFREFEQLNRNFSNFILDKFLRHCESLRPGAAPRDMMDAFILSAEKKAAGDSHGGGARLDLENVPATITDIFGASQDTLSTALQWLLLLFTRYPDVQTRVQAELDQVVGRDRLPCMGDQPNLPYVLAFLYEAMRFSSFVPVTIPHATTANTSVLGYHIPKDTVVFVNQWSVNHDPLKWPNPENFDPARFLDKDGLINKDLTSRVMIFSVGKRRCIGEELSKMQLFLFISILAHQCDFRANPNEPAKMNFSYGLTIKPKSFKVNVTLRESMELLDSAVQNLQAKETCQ
- experiment_description: Inhibition of human recombinant CYP1B1 using 7-ethoxyresorufin as substrate assessed as percent enzyme activity at 1 uM after 30 mins in presence of NADPH by EROD assay relative to control
- Set-up: scale not given: the % may be the effect or the level left
- settings: read-out: Activity
quantity: activity at 0.5 h, 1 µM (%)
Response body: numeric value in %, unit text excluded.

Solved cases below.
| compound | activity at 0.5 h, 1 µM, % |
| --- | --- |
| CN(C)C(=S)Oc1ccc(-c2cc(=O)c3ccc4ccccc4c3o2)cc1 | 15.1 |
| CC1CCC(c2cc(=O)c3ccc4ccccc4c3o2)CC1 (mixture of isomers) | 23.9 |
| O=c1cc(C23CC4CC(CC(C4)C2)C3)oc2c1ccc1ccccc12 | 89 |
| CC(=O)SC1CCCC(c2cc(=O)c3ccc4ccccc4c3o2)C1 (mixture of isomers) | 4.4 |
| CS(=O)(=O)O[C@H]1CC[C@@H](c2cc(=O)c3ccc4ccccc4c3o2)CC1 | 51.5 |

stdin: # input compound: O=c1cc(-c2ccccc2)oc2c1ccc1ccccc12 [ALPHA-NAPHTHOFLAVONE] ; wanted: its activity at 0.5 h, 1 µM
stdout: -11.3

stdin: Could you tell me which activity at 0.5 h, 1 µM is on file for CS(=O)(=O)O[C@H]1CCC[C@@H](c2cc(=O)c3ccc4ccccc4c3o2)C1 (relative stereo) ?
stdout: 80.5

stdin: Data request, read-out activity at 0.5 h, 1 µM, for COc1ccc(-c2cc(=O)c3ccc4ccccc4c3o2)cc1
stdout: -0.5

stdin: Using the record for O=c1cc(-c2cccc(O)c2)oc2c1ccc1ccccc12 , report its activity at 0.5 h, 1 µM.
stdout: 1.6

stdin: Which activity at 0.5 h, 1 µM is reported for this compound? O=c1cc(C2CCC(CO)CC2)oc2c1ccc1ccccc12 (mixture of isomers)
stdout: 56.9

###

- target_or_system: CYP1A2 (Homo sapiens, UniProt P05177)
- Sequence (P05177 whole entry): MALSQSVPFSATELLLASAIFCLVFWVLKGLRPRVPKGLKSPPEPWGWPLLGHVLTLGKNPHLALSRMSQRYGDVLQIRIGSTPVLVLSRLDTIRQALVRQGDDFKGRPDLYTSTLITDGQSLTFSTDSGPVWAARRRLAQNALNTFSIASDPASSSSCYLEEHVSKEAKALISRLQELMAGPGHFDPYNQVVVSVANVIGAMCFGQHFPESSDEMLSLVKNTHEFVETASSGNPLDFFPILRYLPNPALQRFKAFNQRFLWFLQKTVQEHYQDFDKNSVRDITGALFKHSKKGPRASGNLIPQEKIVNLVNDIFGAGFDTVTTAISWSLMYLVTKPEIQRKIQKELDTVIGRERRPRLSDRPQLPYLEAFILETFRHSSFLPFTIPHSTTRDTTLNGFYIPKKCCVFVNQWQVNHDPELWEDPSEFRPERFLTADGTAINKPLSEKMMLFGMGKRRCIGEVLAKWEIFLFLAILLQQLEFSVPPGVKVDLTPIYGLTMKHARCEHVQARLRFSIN
- experiment_description: Inhibition of human recombinant CYP1A2 using 7-ethoxyresorufin as substrate assessed as percent enzyme activity at 1 uM after 30 mins in presence of NADPH by EROD assay relative to control
- Type: ADME
- Set-up: scale not given: the % may be the effect or the level left
- settings: recombinant CYP1A2, probe 7-ethoxyresorufin, read-out: Activity
Quick reference for activity at 0.5 h, 1 µM among some compounds
Quick reminder: number only, in %, skip the unit.

Reference set (3 entries):
| compound | activity at 0.5 h, 1 µM (%) |
| --- | --- |
| CS(=O)(=O)O[C@H]1CC[C@@H](c2cc(=O)c3ccc4ccccc4c3o2)CC1 | 57.7 |
| [N-]=[N+]=Nc1ccc(-c2cc(=O)c3ccc4ccccc4c3o2)cc1 | -13.6 |
| C#C[C@H]1CC[C@@H](c2cc(=O)c3ccc4ccccc4c3o2)CC1 | 21 |

stdin: I'm curious: which activity at 0.5 h, 1 µM was measured for COc1cccc(-c2cc(=O)c3ccc4ccccc4c3o2)c1 tested on CYP1A2 (Homo sapiens, UniProt P05177)?
stdout: 6.1
